# test.method.notes: Cyto-toxicity (MTT assay)
# Format: cell-based
Please go through the items and note down their viability at 4 days, 0.01 µM.
Quick note: give the figure in %, leave out the unit.

Reported viability at 4 days, 0.01 µM of CC(C)C1=C2[C@H]3CC[C@@H]4[C@@]5(C)CC[C@H](OC(=O)[C@H]6C[C@@H](C(=O)O)C6(C)C)C(C)(C)[C@@H]5CC[C@@]4(C)[C@]3(C)CC[C@@]2(NC(=O)C2(NC(=O)c3ccc(Cl)cc3)CCC2)CC1=O [Example 42] : 27

For CC(C)C1=C2[C@H]3CC[C@@H]4[C@@]5(C)CC[C@H](OC(=O)[C@H]6C[C@@H](C(=O)O)C6(C)C)C(C)(C)[C@@H]5CC[C@@]4(C)[C@]3(C)CC[C@@]2(NC(=O)C(C)(C)NCC2(c3ccc(Cl)cc3)CC2)CC1=O [Example 69] the molecule record lists viability at 4 days, 0.01 µM as 42

Entry CC(C)C1=C2[C@H]3CC[C@@H]4[C@@]5(C)CC[C@H](OC(=O)[C@H]6C[C@@H](C(=O)O)C6(C)C)C(C)(C)[C@@H]5CC[C@@]4(C)[C@]3(C)CC[C@@]2(NC(=O)C(C)(C)NC(=O)C2(c3ccc(Cl)cc3)CC2)CC1=O [Example 2] , viability at 4 days, 0.01 µM reported as 42

The measured viability at 4 days, 0.01 µM associated with CC(C)C1=C2[C@H]3CC[C@@H]4[C@@]5(C)CC[C@H](OC(=O)[C@H]6C[C@@H](C(=O)O)C6(C)C)C(C)(C)[C@@H]5CC[C@@]4(C)[C@]3(C)CC[C@@]2(NC(=O)C(C)(C)NC(=O)c2ccc(F)cc2)CC1=O [Example 22] reads 21

---

# test.method.notes: Cyto-toxicity (MTT assay)
# Type: cell-based
property.label: viability at 4 days, 1 µM (%)
Number only, in %; omit the unit.

For this molecule ( CC(C)C1=C2[C@H]3CC[C@@H]4[C@@]5(C)CC[C@H](OC(=O)[C@H]6C[C@@H](C(=O)O)C6(C)C)C(C)(C)[C@@H]5CC[C@@]4(C)[C@]3(C)CC[C@@]2(NC(=O)C(C)(C)NC(=O)c2nccn2C)CC1=O ), measured viability at 4 days, 1 µM is 2

Reported viability at 4 days, 1 µM for Cc1occc1C(=O)NC(C)(C)C(=O)N[C@@]12CC[C@]3(C)[C@H](CC[C@@H]4[C@@]5(C)CC[C@H](OC(=O)[C@H]6C[C@@H](C(=O)O)C6(C)C)C(C)(C)[C@@H]5CC[C@]43C)C1=C(C(C)C)C(=O)C2 was 2

For reference, reported viability at 4 days, 1 µM for Cc1ccc(C(=O)NC(C)(C)C(=O)N[C@@]23CC[C@]4(C)[C@H](CC[C@@H]5[C@@]6(C)CC[C@H](OC(=O)[C@H]7C[C@@H](C(=O)O)C7(C)C)C(C)(C)[C@@H]6CC[C@]54C)C2=C(C(C)C)C(=O)C3)cc1 stands at 4

// sample Cc1ccc(-c2nc3cc(C(=O)NC(C)(C)C(=O)N[C@@]45CC[C@]6(C)[C@H](CC[C@@H]7[C@@]8(C)CC[C@H](OC(=O)[C@H]9C[C@@H](C(=O)O)C9(C)C)C(C)(C)[C@@H]8CC[C@]76C)C4=C(C(C)C)C(=O)C5)ccc3[nH]2)cn1 , its viability at 4 days, 1 µM was 4

Consider CC(C)C1=C2[C@H]3CC[C@@H]4[C@@]5(C)CC[C@H](OC(=O)[C@H]6C[C@@H](C(=O)O)C6(C)C)C(C)(C)[C@@H]5CC[C@@]4(C)[C@]3(C)CC[C@@]2(NC(=O)C(C)(C)NC(=O)c2ccc(N)nc2)CC1=O . Its measured viability at 4 days, 1 µM is 4

Memo: Cc1ccc(C(=O)NC2(C(=O)N[C@@]34CC[C@]5(C)[C@H](CC[C@@H]6[C@@]7(C)CC[C@H](OC(=O)[C@H]8C[C@@H](C(=O)O)C8(C)C)C(C)(C)[C@@H]7CC[C@]65C)C3=C(C(C)C)C(=O)C4)CCC2)cn1 , reported viability at 4 days, 1 µM: 3

In plain terms, CC(C)C1=C2[C@H]3CC[C@@H]4[C@@]5(C)CC[C@H](OC(=O)[C@H]6C[C@@H](C(=O)O)C6(C)C)C(C)(C)[C@@H]5CC[C@@]4(C)[C@]3(C)CC[C@@]2(NC(=O)C(C)(C)NC(=O)c2ccc(Cl)c(Cl)c2)CC1=O has a documented viability at 4 days, 1 µM of 9

The recorded viability at 4 days, 1 µM for CC(C)C1=C2[C@H]3CC[C@@H]4[C@@]5(C)CC[C@H](OC(=O)[C@H]6C[C@@H](C(=O)O)C6(C)C)C(C)(C)[C@@H]5CC[C@@]4(C)[C@]3(C)CC[C@@]2(NC(=O)C(C)(C)NCc2ccccn2)CC1=O is 3
